B1: glmS ribozyme (parent)
chain: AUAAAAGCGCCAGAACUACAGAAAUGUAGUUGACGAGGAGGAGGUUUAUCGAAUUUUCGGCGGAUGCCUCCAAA

- Variants of: B1
- ASSAY_EXPLANATION: kcat; higher = faster cleavage; RNA array
- TEST_SETTINGS: with glucosamine-6-phosphate
Fewer inactive variants are shown than the library holds.
For each entry below, report its kcat value.

Some solved cases for reference:
# MUTATION_KEY, kcat
records = [
    ("A39G C58G", "0.000195 s⁻¹"),
    ("A6U U31C", "3.19e-05 s⁻¹"),
    ("U54A C58A", "0.000802 s⁻¹"),
    ("A48G C68U", "0.000161 s⁻¹"),
    ("G37C C71A", "1.96e-05 s⁻¹"),
]

Go through the list and state kcat for each entry.
1. U47G U49A
2. U54A A64G
3. A14G C68G
4. A15G C61U
5. A12U A15C
6. U46A C61U
7. U31C G37U G62C A64U C70A
8. A33U G66U

1.31e-05 s⁻¹
0.0348 s⁻¹
0.000237 s⁻¹
1.94e-05 s⁻¹
0.00683 s⁻¹
< 1e-05 s⁻¹
< 1e-05 s⁻¹
1.11e-05 s⁻¹

Go through the list and state kcat for each entry.
1. G41A C70G
2. A6C U55A
3. U46G U65C

1: 0.000368 s⁻¹; 2: 9.15e-05 s⁻¹; 3: 4.23e-05 s⁻¹

Go through the list and state kcat for each entry.
1. U45A U47G
2. C10U A14C U30A G35A G38A
3. U30C C68A
4. U30A C70A
5. G44U U55A
6. A12U G13C

0.0105 s⁻¹
< 1e-05 s⁻¹
3.05e-05 s⁻¹
6.65e-05 s⁻¹
0.000317 s⁻¹
< 1e-05 s⁻¹

Go through the list and state kcat for each entry.
1. G44C U47A
2. U31C C68G
3. G13U U46G A52C C67U C70G
4. G29C G41U
5. A14G U49A

["8.35e-05 s⁻¹", "1.29e-05 s⁻¹", "2.41e-05 s⁻¹", "5.56e-05 s⁻¹", "3.99e-05 s⁻¹"]

Go through the list and state kcat for each entry.
1. A48G U56C
2. A12G A64C
3. C11U U65G C68U
4. A64U U65G
5. G32U C68G
6. G29U G66U
7. A15C G44U
8. C71G

1: 5.09e-05 s⁻¹; 2: < 1e-05 s⁻¹; 3: 6.35e-05 s⁻¹; 4: 1.26e-05 s⁻¹; 5: 1.3e-05 s⁻¹; 6: 0.000182 s⁻¹; 7: 4.07e-05 s⁻¹; 8: 0.0034 s⁻¹

Go through the list and state kcat for each entry.
1. C10A A12U C71U
2. C10A G59A C68G U69C
3. G32A C50U C70A
4. A12U G44A
5. A14U A42U
6. A15G C50U
7. A12U G13A C50G C67U
8. C11U G59U

1.55e-05 s⁻¹
3.77e-05 s⁻¹
3.48e-05 s⁻¹
0.00153 s⁻¹
3.26e-05 s⁻¹
9.75e-05 s⁻¹
0.000171 s⁻¹
0.000274 s⁻¹

Go through the list and state kcat for each entry.
1. A15U G44A
2. G13C C16U
3. G66C U69G

1. 3.69e-05 s⁻¹
2. 0.000219 s⁻¹
3. 5.5e-05 s⁻¹

Go through the list and state kcat for each entry.
1. U45A C58G
2. U54A C58G
3. G40C U69C
4. U30C U46C C50U U69C
5. A36C C50U

0.000316 s⁻¹
0.000169 s⁻¹
7.37e-05 s⁻¹
1.66e-05 s⁻¹
< 1e-05 s⁻¹

The values you see were collected from the supplement of paper PMC7125110.
